# Test system: Chordin-like protein 2 (CHRDL2)
# ASSAY PROCEDURE: CHRDL2 small-molecule binders, primary screen, biochemical, small-molecule microarray, 635 nm fluorescence (AID 1126);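 note: printed compound slides probed with Chrdl2 protein at 4 µg/mL for 1 h at 4 C; score merges 667 nm emission intensity with signal to noise over three replicate slides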
# CONDITIONS USED: small-molecule microarray binding, fluorescence 635 nm; higher = more signal
# binarize composite z-score: threshold 0.3 inclusive, high side t, low side f

{"COMPOUND": "CC(CCC(=O)OC[C@H]1O[C@H](C#Cc2ccccc2)C=C[C@@H]1Oc1ccc(C)cc1)=NO[C@@H](C)c1cc(-c2c(C)cc(C)cc2C)no1", "CLASS LABEL": "f"}
{"COMPOUND": "CC#CCOCCC=C1c2ccccc2[C@@H](OC)[C@@H]1C", "CLASS LABEL": "t"}
{"COMPOUND": "C=CC[C@@H]1C=CC(ON=C(C)C)[C@@H](CO)O1 (stereo partly drawn)", "CLASS LABEL": "f"}
{"COMPOUND": "CON=C(C)CCC(=O)OC[C@H]1O[C@H](C#Cc2ccccc2)C=C[C@@H]1Oc1ccc(C)cc1", "CLASS LABEL": "t"}
{"COMPOUND": "COc1ccc(COC(=O)NN=C2C[C@@H](O)[C@@H](O)[C@@H]3[C@@H]4C(=O)N(C5CCCCC5)C(=O)[C@@H]4CC[C@@H]23)cc1", "CLASS LABEL": "f"}
{"COMPOUND": "CO[C@@H]1COC(=O)[C@H](COCc2ccccc2)NC(=O)CC=C[C@@H](C)[C@H](OC)COC(=O)[C@@H](C)NC(=O)CC=C[C@H]1C", "CLASS LABEL": "t"}
{"COMPOUND": "CCOC(=O)CCN1C(=O)[C@H]2[C@H]3[C@H](O)[C@H](O)CC(=NNC(=O)OCc4ccccc4)[C@H]3CC[C@H]2C1=O", "CLASS LABEL": "t"}
{"COMPOUND": "CC[C@@H](c1ccccc1)n1c(=O)n2n(c1=O)[C@H]1[C@H](O)[C@@H]3O[C@@H]3C(=NOCc3ccccc3)[C@H]1CC2", "CLASS LABEL": "f"}
